Values compiled from PubChem BioAssay (NCI).

- Test system: NCI-H226 lung
- assay_notes: NCI-60 one-dose screen, 48 h
- condition_label: 10 µM unless noted
This is part of a sample that, as a whole, favours compounds with a hit. Of some 83,000 tested, about 20% had one in any assay. Calls of active or inactive are those of the source. Rule for the calls: active = growth percent below 10; inactive = the rest.
Please answer using one outcome listed in 1 (active), -1 (inactive)

compound	answer_label
O=C(CN1C(=O)/C(=C/c2ccc(Cl)cc2)SC1=S)NCCCN1CCOCC1	-1
O=C(Nc1cccc2[nH]c(C(F)(F)F)nc12)c1ccc(-n2cnnn2)cc1	-1
C=C1c2nc3ccccc3n2C=C(c2cccc(Cl)c2)N1Cc1ccc(OC)cc1	-1

State the result this test recorded for CCOC(=O)c1cc(C(=O)c2ccc(O)c(O)c2)n2ccc(-c3ccn4c(C(=O)c5ccc(O)c(O)c5)cc(C(=O)OCC)c4c3)cc12 . -1

Assay outcome for NC(=O)c1cc(Br)ccc1NC(=O)/C=C/c1ccccc1 : what was it? -1

Outcome logged for COc1ccc2c(c1)C(=O)/C(=C/c1ccccn1)CC2 in this assay: -1

Name the outcome recorded for C#CCOc1ccc2ncnc(NCc3cccc(NC(=O)CCl)c3)c2c1 in the assay. -1

* * *

- System: IGROV1 ovarian
- assay_notes: NCI-60 one-dose screen, 48 h (100 = growth as untreated, 0 = no growth, -100 = all killed)
- condition_label: 10 µM unless noted
About 83,000 compounds went through this panel and 20% of them were active in at least one assay; those are over-represented in the sample as a whole.
Each item that follows carries a reported growth.
Unit % implied. Number only.

compound	measured_value
N#Cc1nnn(-c2ccc(S(N)(=O)=O)cc2)c1NC(=O)CCl	104
COc1cc(/C=C/C(=O)c2cccnc2Nc2ccc(F)cc2)cc(OC)c1OC	91.7
CC1=C[C@H]2c3c(c(O)c(O)c4oc5cc(O)ccc5c(=O)c34)[C@H](c3cc(O)c(O)c4oc5cc(O)ccc5c(=O)c34)[C@H]2C(C)(C)C1	21.4
COc1ccc(/C=C2\Oc3cc(OCCCCN4CCCC4)ccc3C2=O)cc1	81.2

Quick check: growth of CCN(CC)c1ccc2c(c1)Oc1nc(N)c(C#N)c(N)c1C2Sc1ccc(SC)cc1 (stereo unspecified) ? -13.9

Give its growth value. Item: CN(C)CCCNc1c2ccccc2nc2ccccc12 97.5

* * *

- Tested on: SK-OV-3 ovarian
- assay_notes: NCI-60 one-dose screen, 48 h
- condition_label: 10 µM unless noted
Compounds without any hit were thinned out: in the full panel of roughly 83,000, 20% have a hit. Activity calls are given as the source filed them. How the source made its calls: active means growth percent below 10; inactive means the rest.
Choose the fitting class; nothing outside active, inactive is accepted.

molecule	answer_label
CC(C)n1c(/C=C/[C@@H](O)C[C@@H](O)CC(=O)O)c(-c2ccc(F)cc2)c2ccccc21	inactive
Cc1ccc(O)c(N2C(=NCc3ccco3)NS(=O)(=O)c3cnccc32)c1	inactive
CC1SC(c2ccc(N(C)C)cc2)N(NC(=O)C(O)(c2ccccc2)c2ccccc2)C1=O (configuration not stated)	inactive
CC(=O)c1cc2c(N)c(C(=O)Nc3cccc(F)c3C)sc2nc1C	inactive
CON1C(=O)CC[C@]2(C)[C@H]3CC[C@@H]4C([C@@]5(C)CCC(=O)O5)CC[C@@]4(C)[C@]3(C)CC[C@H]2C1(C)C (some centres not stated)	inactive

# input for lookup
Tell me the recorded outcome of this test for Cc1cc(NS(=O)(=O)c2ccc(-c3cnc(C4CC4)o3)cc2)ccc1Cl . inactive
